Data origin: patent US20250297029A1

- measured-on: T1, GPC3 (UniProt P51654 25-559, limits assumed)
- T1 construct: also called antigen GPC3; Glypican 3
- run-description: SPR as in Example 1 (Biacore T200; scFv-Fc captured, GPC3 in flow)
endpoint-label: koff (s⁻¹)
Give just the number in s⁻¹; leave the unit off.

Q: Query (binder): VL1.M2-VH2.M6 humanized scFv (scFv, not shown: a dimerising Fc or GST, Crude scFv with Fc tag from HEK293 supernatant) scFv: DIVMTQTPLSLSVTPGQPASISCRSSQSLVHSNGNTYLHWYLQKPGQSPQLLIYKVSSRFSGVPDRFSGSGSGTDFTLKISRVEAEDVGVYYCSQNTHVPPTFGQGTKVEIKGGGGSGGGGSGGGGSQVQLVQSGAEVKKPGASVKVSCKASGYTFTSYEMHWVRQAPGQGLEWMGALDPKTGDTAYSQKFQGRVTLTADTSTSTVYMELSSLRSEDTAVYYCTRFYSYTYWGQGTLVTVSS ; field requested: koff
A: 0.00048
